Numbers sourced from ChEMBL document CHEMBL3286230.

Experiment: Cytotoxicity against human IMR32 cells after 48 hrs by MTT assay
Type: functional, cell-based
Conditions: IMR-32, 48 h
pIC50: −log10 of the molar value.
List of pIC50 values.
QUANTITY: pIC50

| MOLECULAR_STRING | QUANTITY | OBSERVED_VALUE |
| --- | --- | --- |
| C=C(C)[C@@H]1CC[C@]2(C)CC[C@]3(C)[C@H](CC[C@@H]4[C@@]5(C)CC[C@H](OC(C)=O)[C@](C)(C(=O)O)[C@@H]5CC[C@]43C)[C@@H]12 | pIC50 | 5.39 |
| C=C(C)[C@@H]1CC[C@]2(C)CC[C@]3(C)[C@H](CC[C@@H]4[C@@]5(C)CC[C@H](O)[C@](C)(C(=O)O)[C@@H]5CC[C@]43C)[C@@H]12 | pIC50 | 5.39 |
